system: Meloidogyne sp.; test: Determination of the nematocidal activity against Meloidogyne sp. (potted tomato, greenhouse); assay type: in vivo; details: tomatoes, cv Marmande; dose 4,000 g/hectare; survey 30 days after transplantation; infested blank 13
Reported values of PLANT DEVELOPMENT (fresh weight g) for individual entries
Mention the unit after the number when you answer.

Here are 3 compounds together with their reported answers.
[
  {
    "Compound": "Cn1c(=O)c2c(ncn2CC[S+]([O-])CCC(F)=C(F)F)n(C)c1=O (stereo not shown)",
    "Measured parameter": "PLANT DEVELOPMENT (fresh weight g)",
    "Result": "17 g"
  },
  {
    "Compound": "Cn1c(=O)c2c(ncn2CCS(=O)(=O)CCC(F)=C(F)F)n(C)c1=O",
    "Measured parameter": "PLANT DEVELOPMENT (fresh weight g)",
    "Result": "16 g"
  },
  {
    "Compound": "Cn1c(=O)c2c(ncn2CC(=O)OCCC(F)=C(F)F)n(C)c1=O",
    "Measured parameter": "PLANT DEVELOPMENT (fresh weight g)",
    "Result": "20 g"
  }
]

Turning to the following compound.
input: Record request: PLANT DEVELOPMENT (fresh weight g) value, item Cn1c(=O)c2c(ncn2C)n(C)c1=O [Caffeine, caffeine, reference compound]
output: 12 g
